# Tested on: COLO 205 colon
# run description: NCI-60 one-dose screen, 48 h (100 = growth as untreated, 0 = no growth, -100 = all killed)
# study conditions: 10 µM unless noted
About 83,000 compounds went through this panel and 20% of them were active in at least one assay; those are over-represented in the sample as a whole.
# label = Met if growth >= 90% else Not met

Could you tell me if the measured growth of CC(C)OC(=O)[C@H](C)NP(=O)(Oc1ccccc1)C1CCCN(O)C1=O (stereo partly drawn) reaches 90% or more?
Met

Evaluate O=C(c1ccccc1O)c1[nH]c(Cl)c(Cl)c1-n1c(C(=O)c2ccccc2O)cc(Cl)c1Cl : growth at minimum 90%?
Not met

Entry CCCCNC(c1ccc(Cl)cc1)C(O)c1ccc(Cl)cc1 (stereo not drawn) : is its growth no less than 90%?
Not met

Test whether the molecule COc1ccc(/C=C\c2cc(OC)c(OC)c(OC)c2)cc1OCC(=O)Nc1nc2ccc(OC(F)(F)F)cc2s1 records growth of 90% or higher.
Met

Has C=C1C[C@](OC)([C@H](O)C(=O)N[C@@H](OC)[C@@H]2C[C@@H](O)C(C)(C)[C@@H](C[C@@H](COC)OC)O2)O[C@H](C)[C@@H]1C a recorded growth greater than or equal to 90%?
Not met

Exam item: decide whether the reported growth for COc1ccc2c(c1)c(-c1nc(-c3c[nH]c4ncccc34)cs1)cn2CCCCN1CCCCC1 is at least 90%.
Not met

Please indicate if the recorded growth for CCn1c2ccccc2c2cc(C(=O)c3cccc4c3CCCN4)ccc21 meets or exceeds 90%.
Met

# bool: growth of O=C(O)c1c(Cl)n(Cc2ccc(O)cc2)c2ccc(O)cc12 >= 90%
Met

###

Field: growth. Provide a value for each of the compounds that follow.
# Tested on: SK-MEL-28 melanoma
# run description: NCI-60 one-dose screen, 48 h (100 = growth as untreated, 0 = no growth, -100 = all killed)
# study conditions: 10 µM unless noted
Compounds without any hit were thinned out: in the full panel of roughly 83,000, 20% have a hit.
I only need the number, in %, no unit after it.

Consider the compound CC[C@H](C)[C@H](NC(=O)[C@H]1CCCCN1C)C(=O)N(C)[C@H](C[C@@H](O)c1nc(C(=O)N[C@@H](Cc2ccccc2)C[C@H](C)C(=O)O)cs1)C(C)C and give its measured growth.
82.8

What value of growth has been reported for the following compound? CCCCCCCCCCCCCC[P+](CCCCCC)(CCCCCC)CCCCCC
-97.8

Entry under review: Cc1ccc2c(C(C[N+](=O)[O-])c3cccs3)c(-c3ccccc3)[nH]c2c1 (configuration not stated) . Reported growth?
49.4

# input compound: CCCCCCCCCCCCCCCCCC1OC[C@H](COC(=O)O[C@@H](C(=O)O[C@H]2C[C@@]3(O)[C@@H](OC(=O)c4ccccc4)[C@@H]4[C@]5(OC(C)=O)CO[C@@H]5C[C@H](O)[C@@]4(C)C(=O)[C@H](OC(C)=O)C(=C2C)C3(C)C)[C@@H](NC(=O)c2ccccc2)c2ccccc2)O1 (some centres not stated) ; wanted: its growth
55.9

What does the record list as growth for CC1(C)N=C(N)N=C(N)N1c1cccc(CCCCc2ccc(Cl)c(S(=O)(=O)F)c2)c1 ?
70.2

Entry COc1cc2c(cc1OCCCCn1c(-c3cccs3)nc3ccccc31)N=C[C@@H]1CCCN1C2=O : reported growth = ?
-37.4

Item CCN(CC)CCOC(=O)C(OC(C)C)(c1ccccc1)c1ccccc1 has what recorded growth?
99.6

###

# System: SK-OV-3 ovarian
# run description: NCI-60 one-dose screen, 48 h (100 = growth as untreated, 0 = no growth, -100 = all killed)
# study conditions: 10 µM unless noted
The panel holds about 83,000 compounds, 20% with a hit somewhere; the sample as a whole holds those more often.
Provide the reported growth of each item.
Just the number in %, nothing appended.

Look up growth for this molecule: CC[C@H](C)[C@H](NC(=O)c1cccn1C)C(=O)N(C)[C@H](C[C@@H](OC(C)=O)c1nc(C(=O)N[C@@H](Cc2ccccc2)C[C@H](C)C(=O)OC)cs1)C(C)C
10.8

For the molecule CC1=C(CCCNS(C)(=O)=O)C2=C(C)C3(CC3)[C@@](C)(O)C(=O)C2=C1 , what growth is on record?
-18

Entry CCCOC(=O)N[C@H]1CCc2c(Br)c(OC)c(OC)c(OC)c2-c2ccc(SC)c(=O)cc21 : reported growth = ?
40.8

Reported growth for O=c1[nH]cc(N(CCCl)CCCl)c(=O)[nH]1 : what is it?
93.3

Entry under review: O=C1OCC2=C1C(c1ccccc1)c1cc3c(cc1N2)OCO3 (stereo not given) . Reported growth?
2.36

###

# Test system: NCI-H460 lung
# run description: NCI-60 one-dose screen, 48 h
# study conditions: 10 µM unless noted
This is part of a sample that, as a whole, favours compounds with a hit. Of some 83,000 tested, about 20% had one in any assay. Active and inactive are the calls of the source. The calls were made as follows: active = growth percent below 10; inactive = the rest.
Form entry, call: pick from label 1 = active, label 0 = inactive

I'd appreciate the recorded outcome for CCOc1ccccc1C(=O)OCC(Cl)(Cl)Cl from this test.
label 0

What outcome does the record of this test show for CN[C@]1(c2ccccc2Cl)CCCC[C@H]1NCCCN1CCN(C)CC1 ?
label 0

For CNC(=O)Oc1ccc(C(C)(C)C)cc1OC(=O)NC , which call appears in the assay record?
label 0

What is the recorded call for this molecule in the test? CCOC(=O)[C@@H](C)C[C@H](Cc1ccccc1)NC(=O)c1csc([C@@H](C[C@H](C(C)C)N(C)C(=O)[C@H](CCC(C)C)NC(=O)[C@H]2CCCCN2C)OC(C)=O)n1
label 1

Given O=C1C2C(C(=O)[N]1[Hg][c]1ccccc1)C1(Cl)C(Cl)=C(Cl)C2(Cl)C1(Cl)Cl (stereo unspecified) , state the outcome it received in this test.
label 1

What was the test verdict on NC(CCl)CCl ?
label 0

###

# System: SW-620 colon
# run description: NCI-60 one-dose screen, 48 h (100 = growth as untreated, 0 = no growth, -100 = all killed)
# study conditions: 10 µM unless noted
This is part of a sample that, as a whole, favours compounds with a hit. Of some 83,000 tested, about 20% had one in any assay. Activity calls are given as the source filed them. The calls were made as follows: active = growth percent below 10; inactive = the rest.
attribute measured: growth

What value of growth has been recorded for this entry: CCCC(C)C1(CC)C(=O)NC(=O)N(C)C1=O (centres undefined)
101% (inactive)

Which growth is listed for COc1ccc(S(=O)(=O)N(Cc2ccc3c(c2)C=CC(C)(C)O3)c2ccccc2)cc1OC ?
87.1% (inactive)

What measured growth goes with CCN1C(=O)C(=C/C=C/c2ccccc2)C(=O)N(CC)C1=O ?
26.5% (inactive)

Please report the recorded growth for O=C1C2C(C(=O)[N]1[Hg][c]1ccccc1)C1(Cl)C(Cl)=C(Cl)C2(Cl)C1(Cl)Cl (centres undefined) .
-78.4% (active)

May I ask what growth has been recorded for C[C@]12C[C@@H](CO)[C@H](O)C[C@@H]1CC[C@@H]1[C@@H]2CC[C@]2(C)[C@@H](O)CC[C@@H]12 ?
101% (inactive)

Return reported growth; argument: CCOC(=O)N1CC1
103% (inactive)

Consider the molecule shown here: CS(=O)(=O)CCN1CC2CCCC(C2)C1 What is its recorded growth?
111% (inactive)

I would be grateful if you could share the reported growth for C/C(=C\c1ccn(-c2ccc(N)c(F)c2)n1)[C@@H]1C[C@@H]2O[C@]2(C)CCC[C@H](C)[C@H](O)[C@@H](C)C(=O)C(C)(C)[C@@H](O)CC(=O)O1 .
44.7% (inactive)

I have this molecule here, C/C(Cc1ccc(Cl)cc1)=C(\c1ccc(OCCN2CCOCC2)cc1)c1ccc(OC(=O)Cc2ccccc2)cc1 , and I need its recorded growth.
96.5% (inactive)

###

# Tested on: RPMI-8226 leukemia
# run description: NCI-60 one-dose screen, 48 h
# study conditions: 10 µM unless noted
The panel holds about 83,000 compounds, 20% with a hit somewhere; the sample as a whole holds those more often. Active and inactive are the calls of the source. The calls were made as follows: active = growth percent below 10; inactive = the rest.
Answer with one of the outcomes active, inactive

Name the outcome recorded for CCCC[C@H](NC(=O)[C@H]1CCCCN1C)C(=O)N(C)[C@H](C[C@@H](OC(C)=O)c1nc(C(=O)N[C@@H](Cc2ccccc2)C[C@H](C)C(=O)OCC)cs1)C(C)C in the assay.
inactive

Hey, what did the test say about O=C(CC1(O)C(=O)N(Cc2ccccc2)c2ccc(Cl)cc21)c1ccc(C(=O)NCC2CCC3(CC2)OOC2(CCCCC2)OO3)cc1 (configuration not stated) ?
active

Please share the test call associated with COC(=O)[C@@]1(C)CC[C@]2(C)CC[C@]3(C)C4=CC(=O)c5c(cc(O)c(O)c5C)[C@]4(C)CC[C@@]3(C)[C@@H]2C1 .
inactive

I would be grateful if you could indicate the recorded call for CC(C)(N)Cc1ccccc1 .
inactive

Which outcome did this test record for the compound NC(=S)c1cn(C2OC(CO)C(O)C2O)c2ncnc(N)c12 (configuration not stated) ?
active

Please let me know the test result on file for CC(=O)OC[C@]1(C)C=C2C(=O)[C@](C)(O)C3(CC3)C(C)=C2[C@H]1O .
inactive

I would be grateful if you could indicate the recorded call for CCCC(=O)O[C@@H]1C[C@H]2C[C@@H](O[C@@H]3O[C@@H](C)[C@@H](O)[C@@H](O)[C@H]3OC)C[C@@H](C[C@@H](C)/C=C/C=C\C[C@@H]3O[C@@H](C[C@@H]3C)[C@@H](O)C[C@H]3C[C@@]1(O)C(=O)O3)O2 .
inactive
